target: T1, hCMV gH + gL + UL128 + UL130 + UL131A (5-member complex; HEK293T co-transfectant) (hCMV, UniProt P12824 24-743; P16832 31-278; P16837 1-171; P16772 1-214); assay: cell competition; competitor 6G4-biotin
T1 construct: whole, on cells; in the functional rows it stands for the complex on virions or transduced cells of the strain or isolate named in the readout; also called gH/gL/UL128-131A complex; pentameric complex
quantity.measured: Inhibition of binding (%)
Answers are plain numbers, in %.

binder="3G16 (antibody, V domains shown, human IgG; also called 3G16-biotin) VH: QSALTQPASVSGSPGESITISCTGTISDVGAYNSVSWYQQHSGTAPELIIYDVTNRPAGVSSRFSGSKSGNTASLTISWLQSEDEAEYYCSSYTTSDTYVFGSGTQVTVL V domain: RAQLVQSAAEMKNPGASVKVSCEASGYTFTGYYVHWMRQAPGQGLEWMGWINPMTGATKSPQKFQGRVTMTRDTSTTATHIELTRLRSDDSAVFFCARGGPTSTRITGKRHFDLWGRGTLITVAS" quantity_measured="Inhibition of binding (%)" result_unit=% number=0
binder="15D8 (antibody, V domains shown, human IgG; also called 15D8-biotin) VH: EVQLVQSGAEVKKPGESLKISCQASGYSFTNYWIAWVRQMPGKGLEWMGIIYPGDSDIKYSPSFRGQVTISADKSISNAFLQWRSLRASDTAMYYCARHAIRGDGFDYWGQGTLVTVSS VL: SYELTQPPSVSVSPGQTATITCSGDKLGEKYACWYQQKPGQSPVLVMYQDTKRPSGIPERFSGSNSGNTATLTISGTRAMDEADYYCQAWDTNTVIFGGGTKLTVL" quantity_measured="Inhibition of binding (%)" result_unit=% number=0
binder="7B13 (antibody, V domains shown, human IgG) VH: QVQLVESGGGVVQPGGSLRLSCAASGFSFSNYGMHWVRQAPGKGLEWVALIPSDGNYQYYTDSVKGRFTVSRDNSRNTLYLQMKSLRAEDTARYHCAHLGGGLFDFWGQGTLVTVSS VL: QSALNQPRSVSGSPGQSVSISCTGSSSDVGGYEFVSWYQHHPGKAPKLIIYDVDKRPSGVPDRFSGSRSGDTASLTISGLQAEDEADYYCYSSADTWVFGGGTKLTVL" quantity_measured="Inhibition of binding (%)" result_unit=% number=100
binder="10F7 (antibody, V domains shown, human IgG; also called 10F7-biotin) VH: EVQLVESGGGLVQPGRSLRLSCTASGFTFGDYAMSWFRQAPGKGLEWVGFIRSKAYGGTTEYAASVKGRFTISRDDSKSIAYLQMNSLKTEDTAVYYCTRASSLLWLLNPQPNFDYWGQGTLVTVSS VL: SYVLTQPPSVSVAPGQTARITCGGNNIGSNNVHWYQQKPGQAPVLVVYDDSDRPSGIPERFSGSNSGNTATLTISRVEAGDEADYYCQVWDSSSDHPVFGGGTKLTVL" quantity_measured="Inhibition of binding (%)" result_unit=% number=0

Can you look up the measured Inhibition of binding (%) of 10P3 (antibody, V domains shown, human IgG) VH: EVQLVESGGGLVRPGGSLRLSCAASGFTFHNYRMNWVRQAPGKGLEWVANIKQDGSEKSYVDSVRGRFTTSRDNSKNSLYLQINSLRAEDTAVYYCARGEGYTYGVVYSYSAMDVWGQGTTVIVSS VL: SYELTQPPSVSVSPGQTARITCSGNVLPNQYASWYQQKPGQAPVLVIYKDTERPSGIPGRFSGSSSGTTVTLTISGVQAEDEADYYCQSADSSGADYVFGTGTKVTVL for me?
0
